Listed here are compounds together with their documented pKi.
# TEST_SYSTEM: Nitric oxide synthase 1 (Rattus norvegicus, UniProt P29476)
# Sequence (P29476 whole entry): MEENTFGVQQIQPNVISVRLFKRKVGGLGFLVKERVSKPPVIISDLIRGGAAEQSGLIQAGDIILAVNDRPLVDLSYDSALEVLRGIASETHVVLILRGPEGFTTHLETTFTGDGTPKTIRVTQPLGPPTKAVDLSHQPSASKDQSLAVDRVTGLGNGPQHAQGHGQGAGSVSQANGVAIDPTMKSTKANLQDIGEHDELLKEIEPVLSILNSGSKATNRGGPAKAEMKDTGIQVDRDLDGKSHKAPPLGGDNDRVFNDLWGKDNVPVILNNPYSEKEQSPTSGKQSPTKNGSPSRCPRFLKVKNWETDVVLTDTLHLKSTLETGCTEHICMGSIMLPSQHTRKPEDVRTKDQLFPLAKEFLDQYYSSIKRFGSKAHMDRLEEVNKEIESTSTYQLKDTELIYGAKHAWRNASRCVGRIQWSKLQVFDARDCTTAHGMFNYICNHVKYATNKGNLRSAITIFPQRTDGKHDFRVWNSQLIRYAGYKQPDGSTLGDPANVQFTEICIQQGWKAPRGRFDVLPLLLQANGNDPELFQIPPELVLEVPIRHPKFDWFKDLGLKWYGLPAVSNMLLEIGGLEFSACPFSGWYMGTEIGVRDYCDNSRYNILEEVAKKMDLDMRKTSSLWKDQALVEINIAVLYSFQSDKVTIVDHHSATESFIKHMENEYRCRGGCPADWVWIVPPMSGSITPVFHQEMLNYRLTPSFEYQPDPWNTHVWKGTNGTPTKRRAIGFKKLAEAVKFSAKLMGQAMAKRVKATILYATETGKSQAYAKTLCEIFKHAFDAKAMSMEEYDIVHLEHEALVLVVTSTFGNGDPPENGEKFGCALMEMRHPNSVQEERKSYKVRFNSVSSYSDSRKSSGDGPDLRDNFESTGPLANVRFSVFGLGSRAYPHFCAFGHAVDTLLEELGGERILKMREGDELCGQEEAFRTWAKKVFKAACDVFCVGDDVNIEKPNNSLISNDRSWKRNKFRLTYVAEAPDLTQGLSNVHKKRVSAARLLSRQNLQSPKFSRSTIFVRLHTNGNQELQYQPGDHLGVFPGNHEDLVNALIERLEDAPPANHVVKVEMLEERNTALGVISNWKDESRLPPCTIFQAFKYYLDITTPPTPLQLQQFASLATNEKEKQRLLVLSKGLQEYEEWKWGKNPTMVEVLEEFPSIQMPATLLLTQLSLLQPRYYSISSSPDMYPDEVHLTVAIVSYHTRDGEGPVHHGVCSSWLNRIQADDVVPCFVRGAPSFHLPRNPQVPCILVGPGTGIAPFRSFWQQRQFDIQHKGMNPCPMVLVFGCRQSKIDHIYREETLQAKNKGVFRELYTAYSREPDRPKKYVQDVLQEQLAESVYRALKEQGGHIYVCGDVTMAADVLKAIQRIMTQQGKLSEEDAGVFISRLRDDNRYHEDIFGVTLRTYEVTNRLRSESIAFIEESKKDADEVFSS
# TEST_SUMMARY: Inhibition of rat recombinant nNOS expressed in baculovirus-infected Sf9 cells assessed as conversion of oxyhemoglobin to methemoglobin by UV spectrophotometer analysis
// pKi here means minus log10 of the molar concentration (mol/L)

smiles_representation=O=C(Cn1ccnc1)c1ccc([N+](=O)[O-])cc1 recorded_measurement=3.98
smiles_representation=O=C(Cn1nc2ccccc2n1)c1ccc([N+](=O)[O-])cc1 recorded_measurement=4.65
smiles_representation=O=C(Cn1cnc2ccccc21)c1ccccc1 recorded_measurement=3.32

Input line: Look up pKi: `O=C(Cn1cnc2cccnc21)c1ccc([N+](=O)[O-])cc1`
Output line: 4.50

Input line: Would you kindly share the measured pKi for `O=C(Cn1cncn1)c1ccc([N+](=O)[O-])cc1` ?
Output line: 4.32

Input line: Entry `Cc1cn(CC(=O)c2ccc([N+](=O)[O-])cc2)cn1` : reported pKi = ?
Output line: 4.07

Input line: What value of pKi has been recorded for this entry: `CC(C)c1nccn1CC(=O)c1ccc(Br)cc1`
Output line: 3.35

Input line: Find the recorded pKi belonging to `Cc1cc(C)n(CC(=O)c2ccc([N+](=O)[O-])cc2)n1` and report it.
Output line: 4.19

Input line: Using the record for `O=C(Cn1cc2ccccc2n1)c1ccc([N+](=O)[O-])cc1` , report its pKi.
Output line: 4.49

====

# Tested on: Radical scavenging activity
# TEST_SUMMARY: Antioxidant activity assessed as DPPH free radical scavenging activity after 10 mins
# Type: functional
PROPERTY_LABEL: IC50

smiles_representation=Cc1cn(CC(=O)c2ccc([N+](=O)[O-])cc2)cn1 recorded_measurement="> 500 µM"

Input line: Entry `O=C(Cn1nnc2ccccc21)c1ccc([N+](=O)[O-])cc1` has what IC50?
Output line: > 500 µM

Input line: Bench note: what IC50 did `Cc1cc2ncn(CC(=O)c3ccc([N+](=O)[O-])cc3)c2cc1C` show?
Output line: > 500 µM

====

We begin with a simple list: items and their reported Ki.
# TEST_SYSTEM: UniProt:P29476
# TEST_SUMMARY: Inhibition of rat recombinant nNOS expressed in baculovirus-infected Sf9 cells assessed as conversion of oxyhemoglobin to methemoglobin by UV spectrophotometer analysis
Lab book: enter the figure in µM, no units written.

Field: example entries. Status: answers known.
smiles_representation=O=C(Cn1ccnc1-c1ccccc1)c1ccc([N+](=O)[O-])cc1 recorded_measurement=40
smiles_representation=Cc1nccn1CC(=O)c1ccc([N+](=O)[O-])cc1 recorded_measurement=74
smiles_representation=Cc1nccn1CC(=O)c1ccc(Br)cc1 recorded_measurement=620
smiles_representation=CCCc1nccn1CC(=O)c1ccc([N+](=O)[O-])cc1 recorded_measurement=40
smiles_representation=O=C(Cn1cnc(-c2ccccc2)c1-c1ccccc1)c1ccc([N+](=O)[O-])cc1 recorded_measurement=36.3
smiles_representation=CCc1nc(C)cn1CC(=O)c1ccc([N+](=O)[O-])cc1 recorded_measurement=75

Input line: Given the entry `Cc1ccnn1CC(=O)c1ccc([N+](=O)[O-])cc1` , report its measured Ki.
Output line: 63

Input line: Give its Ki value. Item: `CC(C)c1nccn1CC(=O)c1ccccc1`
Output line: 750

Input line: Query (molecule): `O=C(Cn1cnc2ccccc21)c1ccc([N+](=O)[O-])cc1` ; field requested: Ki
Output line: 46.6

Input line: Param item = `O=C(Cn1cnc(-c2ccccc2)c1)c1ccc([N+](=O)[O-])cc1` ; retrieve measured Ki.
Output line: 45

Input line: Can you share its Ki? I mean this molecule: `Cc1cncn1CC(=O)c1ccc([N+](=O)[O-])cc1`
Output line: 90

Source: ChEMBL document CHEMBL1944541
